measurementProtocol: A qHTS for Small Molecule Inhibitors of Shiga Toxin
statedConditions: Vero cells, Shiga toxin protein synthesis inhibition reporter; at 38.7 µM, hits give high values
In all, about 290,000 compounds went through this assay and about 27,000 (9.3%) were called active. What follows is part of a selection rich in actives, with near analogues and random picks from the rest.
Record yes (1) whenever inhibition is at 20% or higher; record no (0) when lower.

- sampleSmiles: "CN1CCN(C(=O)CCc2nc(-c3ccc(Cl)cc3)no2)CC1"
  label: "yes (1)"
- sampleSmiles: "O=C(CSc1nnc(Nc2ccccc2)s1)Nc1cccnc1Cl"
  label: "no (0)"
- sampleSmiles: "CCNC(=O)CCc1nc(-c2ccc(C(C)(C)C)cc2)no1"
  label: "yes (1)"
- sampleSmiles: "O=C(Nc1ccc(CN2CCOCC2)cc1)c1cc(Cl)ccc1Cl"
  label: "no (0)"
- sampleSmiles: "C[C@H](NC(=O)C1CCN(S(=O)(=O)c2ccccc2)CC1)C(=O)NCc1ccccc1"
  label: "no (0)"
- sampleSmiles: "O=C(Nc1nonc1-c1ccc(Cl)cc1)c1ccco1"
  label: "no (0)"
- sampleSmiles: "CC(C)c1ccc(Nc2nnc(SCC(=O)c3nnc(-c4ccccc4)o3)s2)cc1"
  label: "yes (1)"
- sampleSmiles: "CCOc1ccc2nc(/N=C/c3nc(-c4ccccc4)oc3O)sc2c1"
  label: "no (0)"
- sampleSmiles: "CSc1nnc2ccc(-c3ccc(C)cc3)nn12"
  label: "no (0)"
- sampleSmiles: "CCNC(=O)CCc1nc(-c2ccc(C)cc2)no1"
  label: "yes (1)"

###

Collected inhibition values appear next to each entry.
measurementProtocol: A qHTS for Small Molecule Inhibitors of Shiga Toxin
statedConditions: Vero cells, Shiga toxin protein synthesis inhibition reporter; at 38.7 µM, hits give high values
Out of some 290,000 compounds screened, about 27,000 (9.3%) were called active. The full list was thinned out, with actives kept by preference.
measurementKind: inhibition (%)

- compound: "CC(C)(C)c1csc(NC2=NS(=O)(=O)c3ccccc32)n1"
  measurementKind: "inhibition"
  obsValue: 97.3
- compound: "CC1(C)C(C=C(Cl)Cl)C1C(=O)NC(O)C(=O)c1ccccc1 (stereo unspecified)"
  measurementKind: "inhibition"
  obsValue: -9.33
- compound: "C[C@H]1[C@H]2c3nc4ccccc4n3C[C@H]1ON2C1CCCCC1"
  measurementKind: "inhibition"
  obsValue: -7.22
- compound: "COc1ccc(/C=C/c2nnc(NC(=O)C(C)C)s2)cc1"
  measurementKind: "inhibition"
  obsValue: 42.3
- compound: "Nc1nc(NCc2ccccc2)n(-c2ccccc2)n1"
  measurementKind: "inhibition"
  obsValue: -6.24
- compound: "O=C(Nc1ccc(Cl)cc1)Nc1nnc(/C=C/c2ccccc2)s1"
  measurementKind: "inhibition"
  obsValue: -5.24
- compound: "O=C(Oc1cccc(NC2=NS(=O)(=O)c3ccccc32)c1)c1ccncc1"
  measurementKind: "inhibition"
  obsValue: 2.4
- compound: "CCOc1ccc(NC(=O)CC(Cc2ccc(Cl)cc2)C(=O)O)cc1 (stereo unspecified)"
  measurementKind: "inhibition"
  obsValue: -2.62
- compound: "CCc1ccc(NC(=O)Cn2nnc(C(=O)NCc3ccc4c(c3)OCO4)c2N)cc1"
  measurementKind: "inhibition"
  obsValue: 0.685
- compound: "COC(=O)c1ccc(C2C3=C(Nc4nnnn42)c2ccccc2OC3)cc1 (stereo unspecified)"
  measurementKind: "inhibition"
  obsValue: -11.2
- compound: "COc1ccc(OC)c(C(=O)c2coc3ccc(OC)cc23)c1"
  measurementKind: "inhibition"
  obsValue: -7.11

###

measurementProtocol: A qHTS for Small Molecule Inhibitors of Shiga Toxin
statedConditions: Vero cells, Shiga toxin protein synthesis inhibition reporter; at 38.7 µM, hits give high values
Out of some 290,000 compounds screened, about 27,000 (9.3%) were called active. Many of the other results were omitted from the sample, so actives are more common in it than they were.

- molecule: "O=C(Cc1c(O)c2ccccc2[nH]c1=O)NCc1ccccc1"
  inhibition, %: -13.9
- molecule: "CCn1c(C)c(C)c2cc(C(=O)N3CCN(c4cccc(C)c4C)CC3)ccc21"
  inhibition, %: -9.52
- molecule: "Cc1ccc(CN2CCC(n3nccc3NC(=O)CCCc3ccccc3)CC2)o1"
  inhibition, %: 21.2
- molecule: "CC(C)OCCCNC(=O)CN1C(=O)/C(=C/c2ccccc2F)Oc2ccccc21"
  inhibition, %: -4.44
- molecule: "CCC1CCCCN1C(=O)CSc1nc2c(c(=O)n1C)SC(C)C2 (configuration not stated)"
  inhibition, %: -5.97
- molecule: "O=C(/C=C\\NCC(=O)c1ccccc1)c1ccccc1"
  inhibition, %: 17.6
- molecule: "CCCCC(=O)NCc1ccc(F)cc1"
  inhibition, %: 21.3
- molecule: "O=C(C1CCC1)N1CCN(c2ccccc2)CC1"
  inhibition, %: -2.3
- molecule: "Cc1ccc(COc2ccc(/C=N/NC(=O)CN3CCCCC3)cc2)cc1"
  inhibition, %: 87.5
- molecule: "O=C(CNCc1ccc(F)cc1)Nc1ccccc1-c1ccccc1"
  inhibition, %: -4.12
- molecule: "O=C(CCOc1ccccc1)NCc1ccccc1"
  inhibition, %: -3.66
- molecule: "CC(=O)N[C@@H](C)C(=O)N1CCC(n2nccc2NC(=O)CCCc2ccccc2)CC1"
  inhibition, %: 57.5

###

measurementProtocol: A qHTS for Small Molecule Inhibitors of Shiga Toxin
statedConditions: Vero cells, Shiga toxin protein synthesis inhibition reporter; at 38.7 µM, hits give high values
Out of some 290,000 compounds screened, about 27,000 (9.3%) were called active. The sample as a whole holds a higher share of actives than the screen did.
Reported inhibition values for a set of compounds

- compound: "COC(=O)c1ccc(CN2C(=O)NC(c3ccccc3)(c3ccccc3)C2=O)o1"
  inhibition: "21.7% (inactive)"
- compound: "CC(Cc1cccs1)N(Cc1ccc(Cl)cc1)C(=O)c1ccncc1 (centres undefined)"
  inhibition: "-3.64% (inactive)"
- compound: "CCCC(=O)Nc1nc2ccc(NC(=O)c3cccnc3)cc2s1"
  inhibition: "89.7% (inactive)"
- compound: "O=C(/C(=C/c1cccc(Cl)c1)c1nc2ccccc2[nH]1)c1ccccc1"
  inhibition: "37.9% (inactive)"
- compound: "Cc1ccc(NC(=O)c2csc3c2CCCC3)cc1"
  inhibition: "110% (active)"
- compound: "COc1ccc(/C=C/C(=O)Nc2cccnc2)cc1OC"
  inhibition: "51.8% (active)"
- compound: "Cc1cc(Cl)nc(NC(=O)Nc2cccc(Cl)c2)n1"
  inhibition: "61.3% (inactive)"
- compound: "Cc1ccc(N2C(=O)C3C4C=CC(CC4)C3C2=O)cc1Cl (centres undefined)"
  inhibition: "6.23% (inactive)"
- compound: "Cc1ccc2c(CSc3nncs3)cc(=O)oc2c1"
  inhibition: "120% (active)"
- compound: "CS(=O)(=O)c1ccc2nc(NC(=O)c3ccc(Cl)nc3)sc2c1"
  inhibition: "70.7% (active)"
- compound: "COc1ccc(/C=C/C(=O)Nc2ccc(C34CC5CC(CC(O)(C5)C3)C4)cc2)cc1OC"
  inhibition: "90.8% (active)"
- compound: "Cc1cc(=O)oc2c3c(cc(OCC(=O)NCCC(=O)N[C@@H](C)C(=O)O)c12)OC(C)(C)CC3"
  inhibition: "-4.24% (inactive)"
- compound: "O=C(C1CC(=O)N(c2ccc(Br)cc2)C1)N1CCCC1 (centres undefined)"
  inhibition: "-22.5% (inactive)"
- compound: "COc1cccc(C(=O)Nc2nc3ccc(S(C)(=O)=O)cc3s2)c1"
  inhibition: "92.7% (active)"
- compound: "CCOC(=O)Cc1csc(SCc2cc(=O)oc3cc(O)ccc23)n1"
  inhibition: "-5.09% (inactive)"
- compound: "CC(C)OCCCNC(=S)N1CCC(C(=O)c2ccc3c(c2)OCCO3)CC1"
  inhibition: "-16.4% (inactive)"
- compound: "CCOC(=O)N1CCN(CC(=O)Nc2cc(C)nn2-c2nc3ccccc3s2)CC1"
  inhibition: "-4.88% (inactive)"
- compound: "COC(=O)CN1C(=O)[C@H]2[C@@H](/C=C/c3ccccc3)N3C(=O)CN(Cc4ccccc4)C(=O)[C@@]3(Cc3ccccc3)[C@H]2C1=O"
  inhibition: "-2.54% (inactive)"
- compound: "Cc1ccc(N2CC(C(=O)NCCS(=O)(=O)N3CCN(c4ccccc4)CC3)CC2=O)cc1 (centres undefined)"
  inhibition: "4.33% (inactive)"
- compound: "N#CC1(NC(=O)COC(=O)CCN=C2NS(=O)(=O)c3ccccc32)CCCCC1"
  inhibition: "12.6% (inactive)"
- compound: "COc1cccc(C(=O)Nc2cccnc2)c1OC"
  inhibition: "2.65% (inactive)"
- compound: "Cc1ccc2[nH]c(=O)c(CN(C)S(=O)(=O)c3cccc4nonc34)cc2c1"
  inhibition: "-4.87% (inactive)"
- compound: "N#C/C(=C(/O)COC(=O)COc1ccc(Cl)cc1)c1nc2ccccc2[nH]1"
  inhibition: "-6.24% (inactive)"
- compound: "S=C1NC(c2ccccc2)=NCN1c1ccc(Br)cc1"
  inhibition: "29.2% (inactive)"
- compound: "O=C(Nc1nc2ccc([N+](=O)[O-])cc2s1)c1ccncc1"
  inhibition: "35% (inactive)"
- compound: "COc1ccc(CCOC(=O)CNC(=O)c2ccc(Cl)cc2Cl)cc1"
  inhibition: "7.31% (inactive)"
- compound: "COC(=O)c1sc(NC(=O)c2csc3c2CCCC3)nc1C"
  inhibition: "76.1% (active)"
- compound: "COc1ccc(/C=C/C(=O)N2CCCC2)cc1OC"
  inhibition: "3.99% (inactive)"
- compound: "Brc1ccccc1C1Nc2cccc3cccc(c23)N1"
  inhibition: "-2.7% (inactive)"
- compound: "CC1CCN(S(=O)(=O)c2nnc(NC(=O)COc3ccccc3F)s2)CC1"
  inhibition: "2.6% (inactive)"
- compound: "COc1ccc(C(=O)CCC(=O)Nc2cccnc2)c(OC)c1"
  inhibition: "-20.3% (inactive)"
- compound: "COc1ccc(-c2oc3ncnc(NCCCO)c3c2-c2ccc(OC)cc2)cc1"
  inhibition: "-19.7% (inactive)"
- compound: "COc1ccc(-n2nc(C(=O)NCC(=O)N3CCC(C(N)=O)CC3)c3ccccc3c2=O)cc1OC"
  inhibition: "-12.3% (inactive)"
- compound: "O=C(NCc1ccco1)c1ccc([N+](=O)[O-])cc1Cl"
  inhibition: "-6.09% (inactive)"
- compound: "CS(=O)(=O)c1ccc2nc(NC(=O)C3C4C=CC(C4)C3C(=O)O)sc2c1 (centres undefined)"
  inhibition: "14.8% (inactive)"
- compound: "COc1ccc(C2=NN(c3nc4ccccc4s3)C(=O)C2)cc1"
  inhibition: "72.3% (active)"
- compound: "Cc1cnc(NC(=O)c2ccccn2)s1"
  inhibition: "11.7% (inactive)"
- compound: "CCN(CC)c1ccc(NC(=O)c2ccc(Cl)nc2)cc1"
  inhibition: "18.4% (inactive)"
- compound: "CS(=O)(=O)c1ccc2nc(NC(=O)C3CCCCC3)sc2c1"
  inhibition: "22.9% (inactive)"
- compound: "COC(=O)c1sccc1NC(=O)c1csc2c1CCCC2"
  inhibition: "92.6% (inactive)"
- compound: "COc1ccc(C2C3=C(CCCC3=O)N(CC(=O)O)C3=C2C(=O)CCC3)cc1"
  inhibition: "14.1% (inactive)"
- compound: "Brc1ccccc1C1N=C(c2ccccc2)NO1 (centres undefined)"
  inhibition: "85.7% (active)"
- compound: "Cc1cc(C)nc(NC(=O)C(C)N2C(=O)c3ccccc3C2=O)n1 (centres undefined)"
  inhibition: "-5.77% (inactive)"
